Assay: DPPH free radical scavenging assay
Type: biochemical
Conditions: 1000 μM, n = 3
measure_name: % DPPH scavenging mean ± SEM (%)

O=C1O[C@H]([C@@H](O)CO)C(O)=C1O [ascorbic acid, reference compound] | 85.08
Cc1ccc(N2C(=O)c3ccccc3C2=O)c(C)c1 | 80.87
O=C1c2ccccc2C(=O)N1c1ccc(Br)cc1 | 69.87
O=C1c2ccccc2C(=O)N1c1ccc(C(F)(F)F)cc1 | 85.87

---

Assay: DPPH free radical scavenging assay
Assay type: biochemical
Conditions: 125 μM, n = 3
measure_name: % DPPH scavenging mean ± SEM (%)

O=C1c2ccccc2C(=O)N1c1ccc(Br)cc1 | 40.16
O=C1O[C@H]([C@@H](O)CO)C(O)=C1O [ascorbic acid, reference compound] | 52.56
Cc1ccc(N2C(=O)c3ccccc3C2=O)c(C)c1 | 40.16
O=C1c2ccccc2C(=O)N1c1ccc(C(F)(F)F)cc1 | 52.16
